Origin of measurements: patent US20250326772A1

# assayedSystem: MRGPRX2 (Homo sapiens)
# Sequence (Q96LB1 1-330): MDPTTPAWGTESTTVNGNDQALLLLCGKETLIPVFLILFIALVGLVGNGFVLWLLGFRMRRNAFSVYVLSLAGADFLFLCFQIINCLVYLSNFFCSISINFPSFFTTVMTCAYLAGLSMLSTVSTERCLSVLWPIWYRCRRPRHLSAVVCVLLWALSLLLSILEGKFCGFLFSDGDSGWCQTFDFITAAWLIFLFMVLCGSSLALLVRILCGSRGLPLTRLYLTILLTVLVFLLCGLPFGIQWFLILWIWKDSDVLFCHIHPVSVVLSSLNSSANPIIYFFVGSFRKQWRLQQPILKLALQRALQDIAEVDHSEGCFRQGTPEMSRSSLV
# assayName: MRGPRX2 reporter cell assay (NFAT-RE luciferase, Substance P stimulation)
# Format: cell-based
# conditionContext: U2OS cells stably transfected with MRGPRX2 and NFAT-RE luciferase reporter; Substance P at EC80; class symbols
Items are presented alongside their recorded IC50.

{"molecule": "Cc1cc(-c2c(-c3c(C(F)F)nn4c3OC[C@@H](F)C4)[nH]c3ncccc23)c(C#N)s1", "IC50": "< 10 nM"}

INPUT: Quick check: IC50 of FC(F)Oc1ncccc1-c1c(-c2c(C(F)F)nn3c2OCCC3)[nH]c2ncccc12 ?
OUTPUT: < 10 nM

INPUT: Quick one: IC50 for CNC(=O)COC(=O)N[C@@H]1COc2c(-c3[nH]c4ncccc4c3-c3cn(C)nc3OC(F)F)c(C(F)F)nn2C1 ?
OUTPUT: < 10 nM

INPUT: Find the recorded IC50 belonging to Cn1cc(-c2c(-c3c(C(F)F)nn4c3OC[C@@](C)(OCC(N)=O)C4)[nH]c3ncccc23)c(OC(F)F)n1 and report it.
OUTPUT: < 10 nM

INPUT: // query IC50 value for entry C[C@H](O)CC(=O)N[C@@H]1COc2c(-c3[nH]c4ncccc4c3-c3cn(C)nc3OC(F)F)c(C(F)F)nn2C1
OUTPUT: < 10 nM

INPUT: Fill blank: measured IC50 of the molecule COC(=O)N[C@@H]1COc2c(-c3[nH]c4ncccc4c3-c3cn(C)nc3OC(F)F)c(C)nn2C1 is ____.
OUTPUT: < 10 nM

INPUT: For Cc1ccc(C#N)c(-c2c(-c3cnn4cccnc34)[nH]c3ncccc23)c1 , what is its reported IC50?
OUTPUT: < 10 nM

INPUT: Any idea what IC50 was measured for Cn1cc(-c2c(-c3c(C(F)F)nn4c3OC[C@@H](OC(F)F)C4)[nH]c3ncccc23)c(OC(F)F)n1 ?
OUTPUT: < 10 nM

INPUT: Using the record for COc1ccsc1-c1[nH]c2ncccc2c1-c1ccccc1C#N , report its IC50.
OUTPUT: < 10 nM

INPUT: Any idea what its IC50 is? The molecule is Cc1nn2c(c1-c1[nH]c3ncccc3c1-c1cccnc1OC(F)F)OC[C@@H](OCCO)C2
OUTPUT: < 10 nM

INPUT: Query: IC50; subject: COc1ccc(F)cc1-c1[nH]c2ncccc2c1C1=CC(C)(C)CCC1OC (stereo not shown)
OUTPUT: 100 to 1000 nM

INPUT: For the molecule shown here, COc1ccc(C#N)c(-c2c(-c3c(C)nn4cccnc34)[nH]c3ncccc23)c1 , give the reported IC50.
OUTPUT: < 10 nM

INPUT: Name the reported IC50 value associated with the molecule C[C@@]1(O)COc2c(-c3[nH]c4ncccc4c3-c3cccnc3OC(F)F)c(C(F)F)nn2C1
OUTPUT: < 10 nM

INPUT: What value of IC50 has been reported for the following molecule? Cn1cc(-c2c(-c3c(C(F)F)nn4c3OC[C@@H](NC(=O)C3(C(N)=O)CC3)C4)[nH]c3ncccc23)c(OC(F)F)n1
OUTPUT: < 10 nM

INPUT: Fill in: IC50 of N#Cc1ccccc1-c1c(-c2c[nH]nc2C(F)F)[nH]c2ncccc12 is ___
OUTPUT: < 10 nM

INPUT: Which IC50 reading was recorded for the molecule COc1ccc(F)c(-c2c(-c3cc(F)ccc3OC)[nH]c3ncccc23)c1 [EX. 345] ?
OUTPUT: < 10 nM
